biological target: Cytochrome P450 2D6 (Homo sapiens); test: Cytochrome panel assay with activity outcomes; conditions: recombinant CYP, pro-luciferin dealkylation, luminescence, p450-cyp2d6; series mostly up to 57.1 µM
Out of some 16,000 compounds screened, about 2,600 (16%) were called active. About 20% were inconclusive and are not listed. The call rests on the fitted dose curve; in most records, active means well fitted curve in the direction sought with a large enough effect; inconclusive means small, poorly fitted or top-dose-only effect, or effect the other way; inactive means no such curve, though single readings can be large or run the other way. Not all results are given here.
Possible outcomes: y (active), n (inactive)

Compound: COc1ccc(/C=C\C(=O)Nc2ccccc2C(=O)O)cc1OC
Classification: n
//
Compound: COc1ccccc1Nc1nc(-c2sc(NC(=O)c3ccccc3)nc2C)cs1
Classification: n
//
Compound: NC(=O)c1ccc(-c2ncc(-c3ccccc3)o2)cc1
Classification: n
//
Compound: CN(C)CCCNc1c(C(=O)O)cnc2c1cnn2C
Classification: n
//
Compound: O=C(NCCCn1ccnc1)c1ccc(Br)c(S(=O)(=O)N2CCOCC2)c1
Classification: y
//
Compound: N#Cc1c2n(c3c(=S)nc[nH]c13)CCCCC2
Classification: n
//
Compound: CCOc1cccc(/C(O)=C2/C(=O)C(=O)N(Cc3cccnc3)C2c2ccco2)c1 (configuration not stated)
Classification: n
//
Compound: O=C(O)c1cc(=O)c2ccc(Cl)cc2[nH]1
Classification: n
//
Compound: C[C@@](N)(C(=O)O)c1ccc(S(=O)(=O)O)cc1
Classification: n
//
Compound: CCOC(=O)N/N=C/c1ccccc1F
Classification: n
//
Compound: O=c1c(-c2ccc(F)c(F)c2)nc2cncnc2n1-c1ccccc1
Classification: n
//
Compound: Cc1ccc(-c2c(C#N)c(N)n(-c3ccccc3)c(=O)c2C#N)cc1
Classification: n
//
Compound: Fc1ccc(-c2cnc(-c3cccs3)o2)cc1
Classification: y
//
Compound: Cc1cc(C=C(C#N)C#N)c(C)n1-c1ccccc1
Classification: n
//
Compound: O=C1C2=C(NC(=S)NC2c2ccc(Cl)cc2)NC(c2ccc(Cl)cc2)N1c1ccc(Cl)cc1 (configuration not stated)
Classification: y
//
Compound: O=C1C2CCCN2C(c2ccccc2F)N1c1ccc(Cl)cc1 (configuration not stated)
Classification: n
//
Compound: C=CCCC(=O)Nc1nc(C)c(-c2csc(Nc3ccc(Cl)cc3)n2)s1
Classification: y

====

molecular target: Cytochrome P450 2D6 (Homo sapiens) (UniProt P10635); assay: Cytochrome panel assay with activity outcomes; settings: recombinant CYP, pro-luciferin dealkylation, luminescence, p450-cyp2d6; series mostly up to 57.1 µM
Sequence (P10635 whole entry, looked up): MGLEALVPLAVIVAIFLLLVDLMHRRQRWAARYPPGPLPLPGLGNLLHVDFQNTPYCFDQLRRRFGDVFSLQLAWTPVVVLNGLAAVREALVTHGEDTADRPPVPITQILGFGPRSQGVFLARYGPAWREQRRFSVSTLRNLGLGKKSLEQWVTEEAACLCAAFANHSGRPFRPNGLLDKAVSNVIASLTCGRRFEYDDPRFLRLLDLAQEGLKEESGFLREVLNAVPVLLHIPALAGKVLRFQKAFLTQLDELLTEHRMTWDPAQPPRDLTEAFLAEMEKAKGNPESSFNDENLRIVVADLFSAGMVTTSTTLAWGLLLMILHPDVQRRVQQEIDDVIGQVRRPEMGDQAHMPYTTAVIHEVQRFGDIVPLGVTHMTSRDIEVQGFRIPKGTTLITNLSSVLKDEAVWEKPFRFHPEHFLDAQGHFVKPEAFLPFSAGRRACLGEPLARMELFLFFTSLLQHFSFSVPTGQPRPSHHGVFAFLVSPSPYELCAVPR
The campaign covered roughly 16,000 compounds. About 2,600 (16%) were called active. Inconclusive results (about 20%) are left out. Calls come from the whole dose curve; as a rule, active = well fitted curve in the direction sought with a large enough effect; inconclusive = small, poorly fitted or top-dose-only effect, or effect the other way; inactive = no such curve, though single readings can be large or run the other way. These entries were drawn from the full list.
Possible outcomes: true (active), false (inactive)

Compound: COc1ccccc1CN1CCC2(CC1)CCN(C(=O)c1cccn1C)CC2
Classification: true
//
Compound: CC(C)NC(=O)N1CC[C@@]2(CCCN(C(=O)c3cccn3C)C2)C1
Classification: false
//
Compound: COc1ccc(/C=C(\C#N)C(=O)NCC2CCCO2)cc1OC (stereo unspecified)
Classification: false
//
Compound: O=C(c1c[nH]c(=O)n(-c2ccccc2)c1=O)N1CCc2ccccc21
Classification: false
//
Compound: C=CC[n+]1c(-c2ccc(C)cc2)csc1NNC(=O)Nc1ccccc1
Classification: true
//
Compound: Cc1ccc(NC(=O)c2sccc2SCc2cccc(C(F)(F)F)c2)cc1
Classification: false

====

biological target: Cytochrome P450 2D6 (Homo sapiens); test: Cytochrome panel assay with activity outcomes; conditions: recombinant CYP, pro-luciferin dealkylation, luminescence, p450-cyp2d6; series mostly up to 57.1 µM
Out of some 16,000 compounds screened, about 2,600 (16%) were called active. Not shown: some 20% with an inconclusive outcome. Calls come from the whole dose curve; as a rule, active = well fitted curve in the direction sought with a large enough effect; inconclusive = small, poorly fitted or top-dose-only effect, or effect the other way; inactive = no such curve, though single readings can be large or run the other way. The list is a sample of the results.
Possible outcomes: true for active, false for inactive

Molecule: CS(=O)(=O)c1ccc([C@H](O)[C@H](CO)NC(=O)C(Cl)Cl)cc1
System name: Cytochrome P450 2D6 (Homo sapiens)
Classification: false
--
Molecule: Cc1ccc(NC(=S)c2nc3ccccc3s2)cc1
System name: Cytochrome P450 2D6 (Homo sapiens)
Classification: false
--
Molecule: Cc1ccc2nc(NC(=O)COC(=O)c3ccc(Br)o3)sc2c1
System name: Cytochrome P450 2D6 (Homo sapiens)
Classification: true
--
Molecule: CCN(CC)c1ccc(/C=C/c2nc3ccccc3s2)cc1
System name: Cytochrome P450 2D6 (Homo sapiens)
Classification: true
--
Molecule: CCS(=O)(=O)c1ccc(O)c(NC(=O)Nc2ccccc2)c1
System name: Cytochrome P450 2D6 (Homo sapiens)
Classification: true
--
Molecule: CCc1ccc(C(=O)N2CCC(c3nc4ccccc4s3)CC2)cc1
System name: Cytochrome P450 2D6 (Homo sapiens)
Classification: false
--
Molecule: Brc1ccc(/C=C/C=N/Nc2nc3ccccc3s2)cc1
System name: Cytochrome P450 2D6 (Homo sapiens)
Classification: false
--
Molecule: Clc1ccc(-c2csc(N3CCC(c4ccccc4)C3)n2)cc1 (centres undefined)
System name: Cytochrome P450 2D6 (Homo sapiens)
Classification: false
--
Molecule: COC(=O)c1c(C)[nH]c(C)c1C(=O)c1ccccc1Cc1ccccc1
System name: Cytochrome P450 2D6 (Homo sapiens)
Classification: false
--
Molecule: CC(C)OP(=O)(OC(C)C)C(NC(=O)c1ccc(Br)cc1)c1ccccc1 (centres undefined)
System name: Cytochrome P450 2D6 (Homo sapiens)
Classification: false
--
Molecule: Nc1nc(Cl)nc2c1ncn2[C@@H]1O[C@@H](CO)[C@@H](O)[C@H]1O
System name: Cytochrome P450 2D6 (Homo sapiens)
Classification: false
--
Molecule: CC1(C)O[C@@H]2C[C@H]3[C@H]4C[C@H](F)C5=CC(=O)CC[C@]5(C)[C@@H]4[C@H](O)C[C@]3(C)[C@]2(C(=O)CO)O1
System name: Cytochrome P450 2D6 (Homo sapiens)
Classification: false
--
Molecule: CN1CCN(NC(=O)c2ccccc2F)CC1
System name: Cytochrome P450 2D6 (Homo sapiens)
Classification: false
--
Molecule: CCC(C)NC(=O)c1ccccc1NC(=O)Nc1ccccc1 (centres undefined)
System name: Cytochrome P450 2D6 (Homo sapiens)
Classification: false
--
Molecule: CCOC(=O)C1CCCN(C(=O)c2sc3nc(-c4ccc(OC)cc4)cn3c2C)C1 (centres undefined)
System name: Cytochrome P450 2D6 (Homo sapiens)
Classification: false
--
Molecule: C=C(C)[C@@H]1CC=C(C(=O)O)CC1
System name: Cytochrome P450 2D6 (Homo sapiens)
Classification: false
--
Molecule: N#Cc1cccc(-c2nc3cnc(N4CCOCC4)nc3n(C[C@H]3CCCO3)c2=O)c1
System name: Cytochrome P450 2D6 (Homo sapiens)
Classification: false
--
Molecule: COc1cccc(-c2nccc(NCc3ccccc3OC)n2)c1
System name: Cytochrome P450 2D6 (Homo sapiens)
Classification: true
--
Molecule: Cc1ccccc1OCCNC(=S)Nc1ccccc1
System name: Cytochrome P450 2D6 (Homo sapiens)
Classification: false
--
Molecule: S=C(S)O[C@@H]1C[C@@H]2C[C@H]1[C@@H]1CCC[C@H]21
System name: Cytochrome P450 2D6 (Homo sapiens)
Classification: false
--
Molecule: O=C1OC2CC3CC1CC(O)(C3)C2 (centres undefined)
System name: Cytochrome P450 2D6 (Homo sapiens)
Classification: false
--
Molecule: COc1ccc(NC(=O)c2ccc(C(=O)c3cc(OC)ccc3OC)cc2)cc1
System name: Cytochrome P450 2D6 (Homo sapiens)
Classification: false
--
Molecule: Cc1noc(C)c1-c1nccc(N2CCN(C)CC2)n1
System name: Cytochrome P450 2D6 (Homo sapiens)
Classification: false
--
Molecule: COc1cccc(-c2nccc(NCc3ccc(OC)cc3OC)n2)c1
System name: Cytochrome P450 2D6 (Homo sapiens)
Classification: true

====

molecular target: Cytochrome P450 2D6 (Homo sapiens) (UniProt P10635); experiment: Cytochrome panel assay with activity outcomes; conditions: recombinant CYP, pro-luciferin dealkylation, luminescence, p450-cyp2d6; series mostly up to 57.1 µM
The campaign covered roughly 16,000 compounds. About 2,600 (16%) were called active. Not shown: some 20% with an inconclusive outcome. Calls come from the whole dose curve; as a rule, active = well fitted curve in the direction sought with a large enough effect; inconclusive = small, poorly fitted or top-dose-only effect, or effect the other way; inactive = no such curve, though single readings can be large or run the other way. Not all results are given here.
Possible outcomes: true = active, false = inactive

Chemical smiles: CCOc1c(OC(C)=O)ccc(/C=C/c2ccc3cccc(OC(C)=O)c3n2)c1[N+](=O)[O-]
Classification: true

Chemical smiles: Clc1ccc(/C=N/Nc2nnc(-c3ncc[nH]3)c3ccccc23)cc1
Classification: false

Chemical smiles: O=C(N/N=C/c1ccc2cccc(OCc3ccccc3)c2n1)c1ccc(Br)cc1
Classification: false

Chemical smiles: COC(=O)c1sc2ccccc2c1-n1cccc1C(=O)C(=O)Nc1ccc(Cl)cc1
Classification: false

Chemical smiles: C/C(=C/C(=O)NCc1ccccc1)C(=O)O
Classification: false

Chemical smiles: Cn1c(=O)c(-c2cccs2)nc2cnc(N3CCNCC3)nc21
Classification: false

Chemical smiles: NCCCNCCCCNCCCN
Classification: false

Chemical smiles: Cc1nc2cnc(N(C)C)nc2n(CCc2ccccc2)c1=O
Classification: false

Chemical smiles: O=c1ccn(-c2cccc(C(F)(F)F)c2)nc1-c1ccn(-c2ccccc2F)n1
Classification: false

Chemical smiles: O=[N+]([O-])c1ccc(C=Nc2ccc(Cl)cc2Cl)s1
Classification: false
